Reported Binding Score values are given for each entry in this list.
Target: T1, Soluble CTLA-4-Ig (human, UniProt P16410 36-161, FITC-conjugated in the two-colour FACS assays; unlabelled and detected with FITC goat anti-human IgG in the concentration-dependent assay)
T1 construct: extracellular domain; Bought from R&D Systems; also called sCTLA-4-Ig; CTLA-4-Ig Fc; not shown: Fc portion of human IgG1
T1 sequence (P16410 36-161): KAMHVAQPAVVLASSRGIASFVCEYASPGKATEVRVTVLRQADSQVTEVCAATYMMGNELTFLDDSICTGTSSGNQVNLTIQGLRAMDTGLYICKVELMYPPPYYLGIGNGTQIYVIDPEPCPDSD
Experiment: two-colour FACS profile on transfected cells; score of preference for CTLA-4-Ig over CD28-Ig vs WT hB7-1
// no unit string in output, number only

Please give the documented Binding Score of Round 2 CTLA4BP-5x5-6e (ligand) VIHVTKEVKEVATLSCGHNVSVEELAQTRIHWQKEKKMVLTMMSGDMNIWPEYKNRTIFDITNNLSIVILALRPSDEGTYECVVLKYEKDAFKREHLAEVMLSVKADFPTPSITDFEIPPSNIRRIICSTSGGFPEPHLSWLENGEELNAISTTVSQDPETELYTVSSKLDFNMTTNHSFMCLIKYGHLRVNQTFNWNTTKQEHFPDNLLPSWAITLISANGIFVICCLTHCFAPRCRERKRNERLRRESVRPV 2

Please give the documented Binding Score of Round 2 CTLA4BP 5x2-h11 (ligand) VIHVTKKVKEVATLSCGHNVSVEELAQTRIYWQKGKKMVLTMMSGDMNIWPECKNRTIFDITNNLSIVILALRPSDEGTYECAVLKYEKDAFKREHLAEVTLSVKADFPTPSISDFEIPTSNIRRIICSTSGGFPEPHLFWLENGEELNAINTTASQDPETELYAVSSKLDFNMTTNHSFMCLIKYGHLRVNQTFNWNTPKQEHFPDNLLPSWAITLISVNGIFVICCLTYCFAPRCRERKSNERLRRESVRPV 1

Please give the documented Binding Score of Round 1 CTLA4BP-5 (ligand, also called R1-5; R1 CTLA-4BP-5) VIHVTKEVKEVATLSCGHNVSVEELAQTRIHWQKEKKMVLTMMSGDMNIWPEYKNRTIFDITNNLSIVILALRPSDEGTYECVVLKYEKDAFKREHLAEVTLSVKADFPTPSISDFEIPPSNIRRIICSTSGGFPEPHLSWLENGEELNAINTTVSQDPGTELYTVSSKLDFNMTTNHSFMCLIKYGHLRVNQTFNWNTPKQEHFPDNLLPSWAITLISVNGIFVICCLTYCFAPRCRERRRNERLRRESVRPV 2

Please give the documented Binding Score of Round 2 CTLA4BP-5x8-1f (ligand) VIHVTKEVKEVATLSCGHNVSVEELAQTRIHWQKEKKMVLTMMSGDMNIWPEYKNRTIFDITNNLSIVILALRPSDEGTYECVVLKYEKDAFKREHLAEVMLSVKADFPTPSITDFEIPPSNIRRIICSASGGFPEPHLFWLENGEELNAINTTVSQDPETELYAVSSKLDFNMTTNHSFMCLIRYGHLRVNQTFNWNTPKQEHFPDNLLPSWAITLISVNGIFVICCLTYCFAPRCRERKSNERLRRESVRPV 2

Please give the documented Binding Score of Round 2 CTLA4BP-5x2-10c (ligand) VIHVTKEVKEVATLSCGHNVSVEELAQTRIHWQKEKKMVLTMMSGDMNIWPEYKNRTIFDITNNLSIVILALRPSDEGTYECVVLKYEKDAFKREHLAEVMLSVKADFPTPSITDFEIPPSNIRRIICSTSGGFPEPHLSWLENGEELNAINTTVSQDPETELYTVSSKLDFNMTANHSFVCLIKYGHLRVNQTFNWNTPKQEHFPDNLLPSWAITLISVNGIFVICCLTYCFAPRCRERRNETLRRESVRPV 2

Continuing:
Please give the documented Binding Score of Round 1 CTLA4BP-27 (ligand, also called R1-27; R1 CTLA-4BP-27) VIHVTKEVKEVATLSCGLNVSVEELAQTRIYWQKEKKMVLTMMSGDMNIWPEYKNRTIFDITNNLSIVILALRPSDEGTYECVVLKYEKDAFKREHLAEVMLSVKADFPTPSISDFEIPPSNIRRIICSTSGGFPEPHLSWLENGEELNAINTTVSQDPETELYTVSSKLDFNMTANHSFVCLIKYGHLRVNQTFNWNTPKQEHFPDNLLPSWAITLISVNGIFVICCLTYCFAPRCRERRRNETLRRESVRPV 1

Please give the documented Binding Score of Round 2 CTLA4BP 5x4-h1 (ligand) VIHVTKEVKEVATLSCGHNVSVEELAQTRIHWQKEKKMVLTMMSGDMNIWPEYKNRTIFDITNNLSIVILALRPSDEGTYECVVLKYEKDAFKRKHLAEVMLSVKADFPTPSISDFEIPTSNIRRIICSTSGGFPEPHLFWLENGEELNAINTTASQDPETELYTVSSKLDFNMTTNRSFVCLIKYGHLRVNQTFNWNTPKQEHFPNNLLPSWAITLISVNGIFVICCLTYCFAPRCRERRRNETLRRESVHPV 2

Please give the documented Binding Score of Round 2 CTLA4BP 5x9-d10 (ligand) VIHVTKEVKEVATLSCGLNVSVEELAQTRIYWQKGKKMVLTMMSGDMNIWPEYKNRTIFDITNNLSIVILALRPSDEGTYECVVLEYEKDAFKREHLAEVMLSVKADFPTPSISDFEIPPSNIRRIICSTSGGFPEPHLSWLENGEELNAINTTASQDPGTELYTVSSKLDFNMTTNHSFMCLIKYGHLRVNQTFNWNTPKQEHFPDNLLPSWAITLISVNGIFVICCLTHCFAPRCRERRRNERLRRESARPV 1

Please give the documented Binding Score of Round 2 CTLA4BP 2x1-c9 (ligand) VIHVTKEVKEVATLSCGHNVSAEELAQTRIYWQKEKKMVLTMMSGDMNIWPEYKNRTIFDITNNLSIVILALRPSDEGTYECVVLEYEKDAFKREHLAEVMLSVKADFPTPSITDFEIPTSNIRRIICSTSGGFPEPRLAWMEDGEELNAISTTASQDPETELYTVSSKLDFNMTTNHSFMCLIKYGHLRVNQTFNWNTPKQEHFPDNLLPSWAITLISVNGIFVICCLTHCFAPRCRERRRNERLRRESVCPV 1
